- Read-out: Cyclin D1 (CCND1), CCND1 (gene 595)
- TEST: LTEA_HepaRG_CCND1: Life Technologies and Expression Analysis (LTEA) Assay for Cyclin D1 (CCND1) using HepaRG (AID 2283451)
- APPLIED CONDITIONS: mRNA level, 48 h; actives raise or lower the signal
The source made the active and inactive calls. How the source made its calls: active means hit-call score of the fitted dose curve at least 0.9, where 1 is the maximum; inactive means score below 0.9.
MEASURED QUANTITY: outcome

{"COMPOUND": "C=CCc1ccc(OC)c(OC)c1", "RESULT": "inactive"}
{"COMPOUND": "CCCCCCC(CCCCCCCCCCC(=O)OCC(COC(C)=O)OC(C)=O)OC(C)=O (stereo not drawn)", "RESULT": "inactive"}
{"COMPOUND": "O=C1CCCCC1", "RESULT": "inactive"}

###

- Read-out: Matrix Metallopeptidase 1 (MMP1), MMP1 (gene 4312)
- TEST: BSK_BE3C_MMP1: BioMAP Diversity Plus: BE3C Assay for Matrix Metallopeptidase 1 (MMP1) Biomarker Activity (AID 2283024)
- APPLIED CONDITIONS: primary human bronchial epithelial cells; actives raise or lower the signal
Activity calls are given as the source filed them. How the source made its calls: active means hit-call score of the fitted dose curve at least 0.9, where 1 is the maximum; inactive means score below 0.9.
Possible outcomes: y (active), n (inactive)

{"COMPOUND": "C=CCc1ccc(OC)c(OC)c1", "CLASS": "n"}
{"COMPOUND": "Cn1cnc2c1c(=O)[nH]c(=O)n2C", "CLASS": "n"}
{"COMPOUND": "Oc1ccccc1O", "CLASS": "n"}
{"COMPOUND": "O=C1c2c(O)cccc2Cc2cccc(O)c21", "CLASS": "y"}
{"COMPOUND": "CC(C)(C)c1ccccc1", "CLASS": "n"}
{"COMPOUND": "NCCOCCOCCN", "CLASS": "n"}
{"COMPOUND": "c1ccc2occc2c1", "CLASS": "n"}
{"COMPOUND": "CSc1ccc(Oc2ccc(S(N)(=O)=O)cc2CN(C)C)cc1C", "CLASS": "n"}
{"COMPOUND": "O=C1CCCCC1", "CLASS": "n"}
{"COMPOUND": "CCCCOC(=O)CCCCC(=O)OCCCC", "CLASS": "n"}
{"COMPOUND": "COC(=O)CCC(=O)OC", "CLASS": "n"}
{"COMPOUND": "Oc1ccc(O)cc1", "CLASS": "y"}
{"COMPOUND": "C/C=C/c1ccc(OC)cc1", "CLASS": "n"}
{"COMPOUND": "CC(C)NCC(O)c1ccc(O)c(O)c1 (stereo unspecified)", "CLASS": "n"}
{"COMPOUND": "CC(=O)[C@@]1(O)CC[C@H]2[C@@H]3CCC4=CC(=O)CC[C@]4(C)[C@H]3CC[C@@]21C", "CLASS": "y"}
{"COMPOUND": "CCc1nc(N)nc(N)c1-c1ccc(Cl)cc1", "CLASS": "n"}

###

- Read-out: E-selectin (Homo sapiens) (UniProt P16581)
- Sequence (P16581 whole entry, looked up): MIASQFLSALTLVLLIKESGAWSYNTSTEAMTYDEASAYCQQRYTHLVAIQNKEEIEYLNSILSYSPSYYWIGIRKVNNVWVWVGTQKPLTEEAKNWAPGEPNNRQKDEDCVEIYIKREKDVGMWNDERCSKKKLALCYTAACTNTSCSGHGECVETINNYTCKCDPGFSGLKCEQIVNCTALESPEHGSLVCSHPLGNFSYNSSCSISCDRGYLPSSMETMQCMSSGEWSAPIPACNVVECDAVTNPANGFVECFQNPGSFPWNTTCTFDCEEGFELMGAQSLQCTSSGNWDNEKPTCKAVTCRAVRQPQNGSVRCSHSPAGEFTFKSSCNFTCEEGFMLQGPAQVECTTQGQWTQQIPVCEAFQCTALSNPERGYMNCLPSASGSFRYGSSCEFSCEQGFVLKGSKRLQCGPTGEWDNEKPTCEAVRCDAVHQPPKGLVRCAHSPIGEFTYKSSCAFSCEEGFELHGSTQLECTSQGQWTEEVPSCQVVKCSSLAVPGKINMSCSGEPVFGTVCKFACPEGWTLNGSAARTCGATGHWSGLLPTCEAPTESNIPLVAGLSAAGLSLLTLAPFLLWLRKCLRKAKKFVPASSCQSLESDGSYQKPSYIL
- TEST: BSK_LPS_Eselectin: BioMAP Diversity Plus: LPS Assay for Eselectin Biomarker Activity (AID 2283077)
- APPLIED CONDITIONS: primary human HUVEC with PBMC; actives raise or lower the signal
The source made the active and inactive calls. The calls were made as follows: active = hit-call score of the fitted dose curve at least 0.9, where 1 is the maximum; inactive = score below 0.9.
Possible outcomes: active, inactive

{"COMPOUND": "CC(=O)CC(c1ccccc1)c1c(O)c2ccccc2oc1=O (centres undefined)", "CLASS": "inactive"}
{"COMPOUND": "CN(C)C(=O)NC1(c2ccccc2)CCN(CCC[C@]2(c3ccc(Cl)c(Cl)c3)CCCN(C(=O)c3ccccc3)C2)CC1", "CLASS": "inactive"}
{"COMPOUND": "CCC(C)N(C)C(=O)c1cc2ccccc2c(-c2ccccc2Cl)n1 (centres undefined)", "CLASS": "inactive"}
{"COMPOUND": "O=C(O)c1cccnc1", "CLASS": "inactive"}
{"COMPOUND": "Oc1ccccc1O", "CLASS": "inactive"}
{"COMPOUND": "OCC(O)CO", "CLASS": "inactive"}
{"COMPOUND": "NC=O", "CLASS": "inactive"}
{"COMPOUND": "CC(C)c1cccc(C(C)C)c1", "CLASS": "inactive"}
{"COMPOUND": "CCCCCCC(CCCCCCCCCCC(=O)OCC(COC(C)=O)OC(C)=O)OC(C)=O (centres undefined)", "CLASS": "inactive"}
{"COMPOUND": "CC(=O)[C@@]1(O)CC[C@H]2[C@@H]3CCC4=CC(=O)CC[C@]4(C)[C@H]3CC[C@@]21C", "CLASS": "inactive"}
{"COMPOUND": "Oc1ccc(O)cc1", "CLASS": "active"}
{"COMPOUND": "O=C1CCCCC1", "CLASS": "inactive"}
{"COMPOUND": "O=Cc1ccccc1C=O", "CLASS": "inactive"}
{"COMPOUND": "CCCCc1nc2cccnc2n1Cc1ccc(-c2ccccc2-c2nnn[nH]2)cc1", "CLASS": "inactive"}
{"COMPOUND": "Cc1cc(SC2=C(O)C[C@@](CCc3ccc(N)cc3)(C(C)C)OC2=O)c(C(C)(C)C)cc1CO", "CLASS": "inactive"}
{"COMPOUND": "O=[Si]=O", "CLASS": "inactive"}
{"COMPOUND": "O=C(O)CN(CC(=O)O)CC(=O)O", "CLASS": "inactive"}
{"COMPOUND": "CC(C)c1cccc(C(C)C)c1NC(=O)NS(=O)(=O)c1cc(C(C)(C)O)co1", "CLASS": "active"}
{"COMPOUND": "CN(C)C(=O)NC1(c2ccccc2)CCN(CC[C@@]2(c3ccc(F)c(F)c3)CN(C(=O)c3ccccc3)CCO2)CC1", "CLASS": "inactive"}
{"COMPOUND": "CC(C)COC(=O)CCCCC(=O)OCC(C)C", "CLASS": "inactive"}
{"COMPOUND": "CC(=O)O[C@]1(C(C)=O)CC[C@H]2[C@@H]3C=C(Cl)C4=CC(=O)[C@@H]5C[C@@H]5[C@]4(C)[C@H]3CC[C@@]21C", "CLASS": "inactive"}
{"COMPOUND": "Cc1cc(Cc2ccc(N)c(C)c2)ccc1N", "CLASS": "inactive"}
{"COMPOUND": "CC(=O)O", "CLASS": "inactive"}
{"COMPOUND": "CC1=C(C)S(=O)(=O)CCS1(=O)=O", "CLASS": "inactive"}
{"COMPOUND": "CCCCOC(=O)CCCCC(=O)OCCCC", "CLASS": "inactive"}
{"COMPOUND": "Cc1c(C)c2c(c(C)c1O)CCC(C)(COc1ccc(CC3SC(=O)NC3=O)cc1)O2 (centres undefined)", "CLASS": "active"}
{"COMPOUND": "S=c1[nH]c2ccccc2s1", "CLASS": "inactive"}
{"COMPOUND": "CSc1ccc(Oc2ccc(S(N)(=O)=O)cc2CN(C)C)cc1C", "CLASS": "inactive"}
{"COMPOUND": "CCOCCOCCO", "CLASS": "inactive"}
{"COMPOUND": "CCCCCCCCCCCCCCCCO", "CLASS": "inactive"}
{"COMPOUND": "CCCC[C@H]1CN(CC2CCOCC2)C(=O)OC12CCN(C1(C)CCN(C(=O)c3c(C)ncnc3C)CC1)CC2", "CLASS": "inactive"}
{"COMPOUND": "Cc1ccc(C(C)(C)C)c(O)c1", "CLASS": "inactive"}
{"COMPOUND": "CCCCC(CC)COP(=O)(OCC(CC)CCCC)OCC(CC)CCCC (centres undefined)", "CLASS": "inactive"}
{"COMPOUND": "C=CCc1ccc(OC)c(OC)c1", "CLASS": "inactive"}
{"COMPOUND": "NCCOCCOCCN", "CLASS": "inactive"}
{"COMPOUND": "COC(=O)CCCC(=O)OC", "CLASS": "inactive"}
{"COMPOUND": "CCCCCCC(C=O)=Cc1ccccc1", "CLASS": "inactive"}
{"COMPOUND": "C/C=C/c1ccc(OC)cc1", "CLASS": "inactive"}
{"COMPOUND": "O=NO", "CLASS": "inactive"}
{"COMPOUND": "COc1ccc(OC(F)(F)F)cc1CN[C@H]1CCCN[C@H]1c1ccccc1", "CLASS": "inactive"}
{"COMPOUND": "CN(C)CCCN(C)CCCN(C)C", "CLASS": "inactive"}
{"COMPOUND": "COC(=O)CCC(=O)OC", "CLASS": "inactive"}
{"COMPOUND": "CC(C)NCC(O)c1ccc(O)c(O)c1 (centres undefined)", "CLASS": "inactive"}
{"COMPOUND": "Cc1occc(=O)c1O", "CLASS": "inactive"}
{"COMPOUND": "CC(COCC(C)OC(=O)c1ccccc1)OC(=O)c1ccccc1 (centres undefined)", "CLASS": "inactive"}
{"COMPOUND": "O=C(O)CC(O)(CC(=O)O)C(=O)O", "CLASS": "inactive"}
{"COMPOUND": "C/C=C/C=C/C(=O)O", "CLASS": "inactive"}
{"COMPOUND": "CC(C)(O)c1ccc(CNC(=O)c2cccnc2Oc2ccc(F)cc2)cc1", "CLASS": "inactive"}
{"COMPOUND": "CC(=O)OCC(COC(C)=O)OC(C)=O", "CLASS": "inactive"}
